Protocol summary: Solubility in D2O confirmed by NMR
Assay type: physicochemical
Property: solubility

Report solubility for CCCCC(=O)c1ccc(OC)c(OC2CCNCC2)c1 please.
≤ 800 µM
